FYI, the data here is from PubChem BioAssay (NCATS).

assay: NFAT Signaling Pathway (AID 444); conditions: Jurkat NFAT-bla M1, carbachol, beta-lactamase ratio, 5 h; at 7.69 µM (top of the series) unless noted;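 further: carbachol stimulus at about its EC50 of 1 µM final; on the % scale 0 is the no-effect control and ±100 the full control effect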
Inconclusive results are not listed.
Quantity name: activity change, negative = inhibition (%)
One number for each entry, in %.

| Smiles notation | U | Endpoint result |
| --- | --- | --- |
| c1nc(N2CCNCC2)c2cc(-c3ccoc3)ccc2n1 | % | 9.12 |

Batch request: activity change, negative = inhibition for each of the following compounds.
1. O=C(Nc1cccc(F)c1)N1CC[C@@]2(CCCN(C(=O)c3cccc(F)c3)C2)C1
2. CS(=O)(=O)Nc1cccc(-c2ccc3ncnc(NC4CC4)c3c2)c1
3. O=C(c1ccco1)N1CCC2(CC1)CCN(c1ncccn1)CC2
4. O=c1c(-c2cc(F)cc(F)c2)nc2cncnc2n1-c1ccccc1
5. FC(F)(F)c1cc(CN2CCCC3(CCNCC3)C2)cc(C(F)(F)F)c1

16.9
-15.5
-8.3
-2.26
-4.7

Batch request: activity change, negative = inhibition for each of the following compounds.
1. Cc1ccccc1-c1nccc(NCCN2CCOCC2)n1
2. CN(C)C(=O)c1ccc(-c2cncnc2N2CCNCC2)cc1
3. COc1ccc(CNc2ccnc(-c3ccccc3C(F)(F)F)n2)c(OC)c1
4. Cc1noc(C)c1C(=O)N1CCC2(CCCN(Cc3nccs3)C2)CC1
5. O=C(c1ccco1)N1CCC2(CC1)CCN(c1ccccc1)CC2

1: -13.9; 2: 10.6; 3: -5.1; 4: -16.6; 5: -1.84

---

tested on: CP192; experiment: qHTS profiling for inhibitors of Plasmodium falciparum proliferation (AID 504749); further: nearly all actives have a fitted effect of over 60% in size; conditions: P. falciparum in erythrocytes, SYBR Green DNA, 72 h; series mostly up to 28.7 µM
Inconclusive results are not listed. Active and inactive are the calls of the source. Calls come from the whole dose curve; as a rule, active = well fitted inhibition curve with a large enough effect; inconclusive = small, poorly fitted or top-dose-only effect; inactive = flat fitted curve, though single readings scatter.
The categories you may choose from are True (active), False (inactive)

These solved cases illustrate the format of a correct answer.
| Molecule | Answer label |
| --- | --- |
| CC(C)C[C@H]1C(=O)N2CCCC2[C@]2(O)O[C@](NC(=O)[C@@H]3C=C4c5cccc6[nH]c(Br)c(c56)C[C@H]4N(C)C3)(C(C)C)C(=O)N12 (stereo partly specified) | True |
| Oc1ccc(/C=C\c2cc(O)cc(O)c2)cc1 | False |
| C[C@@H]1[C@H](O)[C@@H](C)/C=C/C=C/C=C/C=C/C=C/C=C/C=C/[C@H](O[C@@H]2O[C@H](C)[C@@H](O)[C@H](N)[C@@H]2O)C[C@@H]2O[C@](O)(C[C@@H](O)C[C@@H](O)[C@H](O)CC[C@@H](O)C[C@@H](O)CC(=O)O[C@H]1C)C[C@H](O)[C@H]2C(=O)O | False |
| C[C@@]12C(=O)OC(=O)[C@]1(C)[C@H]1CC[C@@H]2O1 | True |
| C=C1/C(=C\C=C2/CCC[C@]3(C)[C@@H]([C@H](C)CCCC(C)(C)O)CC[C@@H]23)C[C@@H](O)C[C@@H]1O | False |

Note: attention shifts to another entry.
Which outcome was entered for the molecule `COc1ccc(CCNC[C@@H](O)c2ccc(O)cc2)cc1OC` in this test?
False

---

assay: qHTS Assay for Identification of Small Molecule Agonists for Hypoxia Response Element Signaling Pathway (AID 914); settings: ME-180 HRE-bla reporter, beta-lactamase ratio, CoCl2, 17 h; active compounds read high; further: % of control where 0% means no effect
Inconclusive results are not listed.
Exercise: state measured activation for each of the compounds provided.
Give bare numbers, in %.

| Smiles notation | activation [%] |
| --- | --- |
| CNc1cc(-c2ccccc2C(F)(F)F)ncn1 | 17.1 |
| COc1ccccc1CNc1ncncc1-c1cccc(C#N)c1 | -9.43 |
| O=C(c1csnn1)N1CCC2(CC1)CN(c1ccccc1)C2 | -12.1 |
| COCCn1c(=O)cnc2cnc(Oc3ccccc3)nc21 | 10.1 |
| Cc1cnc(CNc2ncncc2-c2ccc(C(=O)N(C)C)cc2)cn1 | 0.757 |
| Cc1cccc(CNc2ncncc2-c2ccc3c(c2)OCO3)c1 | -16.9 |
| Cc1ccccc1-c1nc(NC2CCNCC2)c2ccccc2n1 | 12.4 |
| COCCNc1nc(-c2ccccc2CN(C)C)nc2ccccc12 | 2.67 |
| COC(=O)N1CCC2(CC1)CCN(c1ccccc1)CC2 | 0.0011 |
| COCCn1c(=O)c(-c2cccc(C#N)c2)nc2cnc(OC)nc21 | -7.08 |

Batch request: activation for each of the following compounds.
1. O=C(c1ccco1)N1CCC2(CC1)CN(c1ccccc1)C2
2. CC(C)NC(=O)N1CCCC2(CCN(C(=O)c3cc(C(F)(F)F)cc(C(F)(F)F)c3)CC2)C1
3. Cc1cccc(CNc2nc(-c3ccc4c(c3)OCO4)nc3ccccc23)c1
4. Cc1nc2cnc(N(C)C)nc2n(C2CC2)c1=O

[-3.45, -9.04, 6.93, 9.86]

Batch request: activation for each of the following compounds.
1. O=C(c1csnn1)N1CCC[C@@]2(CCN(Cc3nccs3)C2)C1
2. N#Cc1ccc(CN2CCCC3(CCN(C(=O)c4cccc(F)c4)CC3)C2)cc1
3. COc1ccc(Oc2ncc3ncc(=O)n(C[C@H]4CCCO4)c3n2)cc1

[-0.307, -15.7, -21.9]

Batch request: activation for each of the following compounds.
1. c1ccc(Nc2cc(-c3ccoc3)ncn2)cc1
2. O=c1c(-c2cc(F)cc(F)c2)nc2cnc(Nc3ccccc3)nc2n1C[C@H]1CCCO1
3. COCCn1c(=O)c(-c2ccccc2)nc2cnc(OC)nc21

[-8.49, -17, -14.2]

Batch request: activation for each of the following compounds.
1. CNc1nc(-c2ccccc2Cl)nc2ccccc12
2. COc1ncc2nc(-c3cccc(C#N)c3)c(=O)n(CCC#N)c2n1
3. Cn1c(=O)c(-c2cc(F)cc(F)c2)nc2cnc(N3CCOCC3)nc21
4. CN1CCN(c2nc(-c3ccccc3C(F)(F)F)nc3ccccc23)CC1

1: 11.6; 2: -3.76; 3: -3.42; 4: -4.44

---

assay: AP1 Signaling Pathway (AID 357); conditions: ME-180 (cervical carcinoma) AP-1-bla reporter, EGF-induced, beta-lactamase ratio, 5 h; at 7.69 µM (top of the series) unless noted;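 further: ME-180 reporter cells stimulated with EGF at its EC50 level; on the % scale 0 is the no-effect control and ±100 the full control effect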
Inconclusive results are not listed. Activity calls are given as the source filed them. Calls come from the whole dose curve; as a rule, active = well fitted curve in either direction with a large enough effect (not every such curve was filed as active); inconclusive = small, poorly fitted or top-dose-only effect, or another doubt; inactive = flat fitted curve, though single readings scatter.
The categories you may choose from are active, inactive

These solved cases illustrate the format of a correct answer.
| Smiles notation | Answer label |
| --- | --- |
| Cc1nc2cnc(N3CCN(C)CC3)nc2n(-c2ccccc2)c1=O | inactive |
| O=C(c1csnn1)N1CCC2(CC1)CN(Cc1cc(C(F)(F)F)cc(C(F)(F)F)c1)C2 | inactive |
| CC(C)NC(=O)N1CC[C@@]2(CCCN(S(C)(=O)=O)C2)C1 | inactive |

Which outcome was entered for the compound `CNc1ccnc(-c2ccccc2CN(C)C)n1` in this test?
inactive

Which outcome was entered for the compound `COCCn1c(=O)c(-c2ccc(F)cc2)nc2cnc(OC)nc21` in this test?
inactive

Which outcome was entered for the compound `N#Cc1ccccc1-c1ccc2ncnc(N3CCNCC3)c2c1` in this test?
inactive

Which outcome was entered for the compound `Cc1ccccc1-c1nccc(Nc2ccc(F)cc2)n1` in this test?
inactive

Which outcome was entered for the compound `FC(F)(F)c1ccccc1-c1cc(N2CCNCC2)ncn1` in this test?
inactive

Which outcome was entered for the compound `Cc1noc(C)c1-c1cc(N2CCNCC2)ncn1` in this test?
inactive

Which outcome was entered for the compound `COc1ccc(NC(=O)N2CC[C@@]3(CCCNC3)C2)cc1` in this test?
inactive

Which outcome was entered for the compound `COc1ccc(Oc2ncc3nc(-c4cn(C)c5ccccc45)c(=O)n(C4CC4)c3n2)cc1` in this test?
inactive

Which outcome was entered for the compound `CN1CCN(c2ncc3nc(-c4ccc(Cl)cc4)c(=O)n(Cc4cccs4)c3n2)CC1` in this test?
active

Which outcome was entered for the compound `c1cncc(CNc2ncncc2-c2ccc3c(c2)OCO3)c1` in this test?
inactive

Which outcome was entered for the compound `COC(=O)N1CCC[C@@]2(CCN(C(=O)Nc3cccc(C#N)c3)C2)C1` in this test?
inactive

Which outcome was entered for the compound `COCCn1c(=O)c(-c2ccc(Cl)cc2)nc2cnc(OC)nc21` in this test?
inactive

Which outcome was entered for the compound `CC(=O)NCCNc1cc(-c2ccccc2C(F)(F)F)ncn1` in this test?
inactive

Which outcome was entered for the compound `COc1ccc(-c2nc3cnc(N4CCOCC4)nc3n(-c3ccccc3)c2=O)cc1` in this test?
inactive

Which outcome was entered for the compound `O=C(Nc1ccccc1)N1CC[C@@]2(CCCN(C(=O)c3ccco3)C2)C1` in this test?
inactive

Which outcome was entered for the compound `Cc1cnc(CNc2ncnc3ccc(-c4ccoc4)cc23)cn1` in this test?
inactive

Which outcome was entered for the compound `O=C(c1ccco1)N1CCC2(CC1)CN(C(c1ccccc1)c1ccccc1)C2` in this test?
inactive

Which outcome was entered for the compound `Cc1cccc(CNc2cc(-c3ccccc3CN(C)C)ncn2)c1` in this test?
inactive

Which outcome was entered for the compound `COc1ncc2nc(-c3cc(F)cc(F)c3)c(=O)n(-c3ccccc3)c2n1` in this test?
inactive

Which outcome was entered for the compound `CN(Cc1ccco1)c1ncnc2ccc(-c3ccccc3C(F)(F)F)cc12` in this test?
inactive
